Test system: MDA-MB-231 breast
Assay: NCI tumour cell line growth inhibition, 48 h
Endpoint: TGI (µM)
One number for each entry, in µM.

>>> quantitative_readout("COc1cc(OC)cc(Oc2cnc3cc(N)cc(N)c3n2)c1")
21

Read the next record carefully.
Please give the measured TGI for this compound: "O=C1CC(/C=C/c2ccco2)=C(O)C1=O"
35.2

---

System: M14 melanoma
Test: NCI tumour cell line growth inhibition, 48 h
Endpoint: TGI

Worked cases, TGI given:
>>> result("CCCCCCCCCCNCCSSCc1ccc(Cl)cc1")
"1.17 µM"
>>> result("O=C(NC(=S)Nc1ccc([N+](=O)[O-])cc1)c1ccc2c(c1)Sc1ccccc1O2")
"> 100 µM"

Go through the list and state TGI for each entry.
1. COc1ccc(Nc2nc3cc(C(F)(F)F)ccc3nc2-c2ccccc2)cc1OC
2. CC1(C)OC[C@H](C(=N)OCc2ccccc2)O1
3. COC1=C[C@]2(CCC(=O)O2)[C@@H]2Cc3ccccc3[C@H](O)[C@@H]2C1=O
4. OCc1ccc(-c2csc(-c3ccc(CO)o3)c2)o1

1. > 100 µM
2. > 100 µM
3. > 100 µM
4. > 100 µM

Look up TGI for the entries below, preserving their order.
1. COc1cc2c3c(n(CCCN(CCCN(CCCn4c5c(c6ccccc6c4=O)C(=O)c4ccccc4-5)C(=O)OC(C)(C)C)C(=O)OC(C)(C)C)c(=O)c2cc1OC)-c1cc2c(cc1C3=O)OCO2
2. CC(C)(C)N/N=C(\C(=O)Nc1cccc(Cl)c1)C1C(=O)Nc2ccccc2S1=O (stereo not given)
3. Cc1c(C(=O)O)n2c(=S)[nH]nc2c2ccccc12
4. CS(=O)(=O)N1CCC(n2c(=O)c(Oc3ccc(F)cc3F)cc3cnc(NC4CCOCC4)nc32)CC1

["> 100 µM", "> 100 µM", "> 100 µM", "> 25 µM"]

---

Test system: KM12 colon
Assay: NCI tumour cell line growth inhibition, 48 h; in the data active means GI50 below about 0.43 µM; inactive means the rest
Outcomes you can answer with include only these: active, inactive

>>> class_label("COc1ccc(-c2cc(/C=C3\\C(=O)Nc4cc(Cl)ccc43)[nH]n2)cc1")
"inactive"

Please share the test call associated with CCCCCCC1N=C(N)N=C(N)N1c1cccc(Cl)c1 (centres undefined) .
active

Query: recorded result category for "O=C(Cn1c(C(=O)c2ccc(Cl)cc2)nc(-c2ccc(Cl)cc2)c1-c1ccc(Cl)cc1)c1ccccc1" in this test
inactive

Please indicate how the test categorized "CS(=O)(=O)N1CCC(n2c(=O)c(Oc3ccc(F)cc3F)cc3cnc(NC4CCOCC4)nc32)CC1" .
inactive

---

Test system: A549 NSCLC
Assay: NCI tumour cell line growth inhibition, 48 h
Endpoint: GI50

Would you please look over these solved cases?
>>> result("COc1cc(OC)cc(Oc2cnc3cc(N)cc(N)c3n2)c1")
"22.8 µM"
>>> result("COC(=O)c1cc(NC(=O)c2cc(NC(=O)c3cc([N+](=O)[O-])n(C)c3)cn2C)cn1C")
"64.1 µM"
>>> result("C[C@H](c1ccc(F)cc1CCCC(=O)O)N(c1cc(F)ccc1F)S(=O)(=O)c1ccc(Cl)cc1")
"28.1 µM"

Go through the items and report each one's GI50.
1. Cn1cc(C2=C(c3c4n(c5ccccc35)CCNC4)C(=O)NC2=O)c2ccccc21
2. O=C1Nc2ccccc2/C1=C\c1c(-c2ccccc2)nc2sccn12

1: 11.8 µM; 2: 3.5 µM

Could you tell me which GI50 is on file for "CC(c1cc(Cl)ccc1O)c1cc(Cl)ccc1O" ?
4.15 µM

---

Please go through the items and note down their TGI.
Tested on: CAKI-1 renal
Assay: NCI tumour cell line growth inhibition, 48 h

Before answering, review these 5 worked examples.
>>> result("Cc1cc2c(c(C(=O)NCC(=O)N[C@@H](C)C(=O)OCc3ccccc3)c1)Oc1c(cc(C)cc1C(=O)NCC(=O)N[C@@H](C)C(=O)OCc1ccccc1)S2")
"> 100 µM"
>>> result("O=c1[nH]c2ccccc2c(O)c1Cc1ccccc1")
"> 100 µM"
>>> result("CNC(=O)c1nn(C)c2c1C(C)(C)Cc1cnc(Nc3cccc(N4CCN(C)CC4)c3)nc1-2")
"1.9 µM"
>>> result("C/C=C1/CN2CCC34c5ccccc5N(C)C23C2CC1C4(C(=O)OC)C(OC(C)=O)O2 (centres undefined)")
"> 100 µM"
>>> result("O=C(C=Nc1ccccc1C(=O)[O-])c1cccs1.O=C(C=Nc1ccccc1C(=O)[O-])c1cccs1.[Ni+2]")
"> 100 µM"

The following compounds each have a reported value; give each one's TGI.
1. C/C(=N\Nc1nc2cc(Cl)ccc2s1)c1ccccn1
2. CCOC(=O)c1nc2ccc(OC)cc2c2c1Cc1ccccc1-2
3. COC(=O)C1=COC2OC3C(C(C)O)C(=O)OC34C=CC1C24 (centres undefined)
4. O=[N+]([O-])c1cc(-c2nc(=S)[nH][nH]2)ccc1O

46 µM
> 100 µM
> 100 µM
> 100 µM

---

Assign TGI to each entry below.
Tested on: SF-539 CNS
Assay: NCI tumour cell line growth inhibition, 48 h

>>> result("COc1ccc2nc3c([N+](=O)[O-])ccc(NCCN(C)C)c3c(N)c2c1")
"3.05 µM"
>>> result("CCc1cc(C)cc2[n+]1CC=C2")
"95.6 µM"

Provide TGI values for the following items, in order.
1. Cc1cc(=O)[nH]c(CNC(=O)c2ccc3ccccc3c2)n1
2. C[C@@]1(CCCCCCCCCCc2ccccc2)C[C@@]2(C)OC(=O)C[C@H]2OO1
3. COc1ccc(/C=C/C(=O)c2c(O)ccc3c(C)c(C(=O)O)oc23)cc1
4. CCCCCCC1N=C(N)N=C(N)N1c1cccc(Cl)c1 (stereo unspecified)
5. CCOC(=O)/C=C(/C(=O)OCC)n1cc(C)c(=O)n(Cc2cnnn2COCCOC(C)=O)c1=O
6. CCn1c2nc(=O)n(CCCCCCCCSC(c3ccccc3)(c3ccccc3)c3ccccc3)c(=O)c-2nc2ccccc21
7. CC1(C)CC(=O)C=C(/C=C/Sc2c(Cl)c(Cl)nc(Cl)c2Cl)C1
8. O=C1C=C(Nc2ccccc2C(=O)CC(=O)C(=O)Nc2ccc(Cl)cc2)c2ccccc2C1=O

1. > 100 µM
2. 2.58 µM
3. > 100 µM
4. 5.76 µM
5. 19.4 µM
6. > 100 µM
7. 26.4 µM
8. 50.2 µM

Which TGI value belongs to "Cc1ccccc1NC(=O)Cc1csc(N/N=C2\NC(=O)/C(=C/c3cccc([N+](=O)[O-])c3)S2)n1" ?
33.4 µM

---

Test system: SF-295 CNS
Experiment: NCI tumour cell line growth inhibition, 48 h
Endpoint: TGI

>>> result("COc1cc2c3c(n(CCCN4CCNCC4)c(=O)c2cc1OC)-c1cc2c(cc1C3=O)OCO2")
"1.93 µM"

Please go through the list and note TGI for each compound.
1. C/C=C1/CN2CCC34c5ccccc5N(C)C23C2CC1C4(C(=O)OC)C(OC(C)=O)O2 (stereo not given)
2. ClCCCSSCCCCl
3. CC#C[C@]1(O)CCC2[C@@H]3CCC4=CC(=O)CCC4=C3[C@@H](c3ccc(N(C)C)cc3)C[C@@]21C (stereo not given in full)
4. COC(=O)[C@H](CC(C)C)NC(=O)[C@H](Cc1ccccc1)N1CC2C=CC1C2 (stereo not given in full)
5. Oc1cc(N2CC2)c(O)cc1N1CC1

["> 100 µM", "> 100 µM", "30.1 µM", "> 100 µM", "5.32 µM"]

---

Tested on: SK-OV-3 ovarian
Test: NCI tumour cell line growth inhibition, 48 h
For each entry below, report its TGI value.

>>> result("CCC(=O)Nc1cccc(N=Cc2ccc(OC(=O)/C=C\\c3ccccc3)cc2)c1")
"> 75 µM"
>>> result("CCCCCCCCCCCCCC[n+]1ccccc1")
"4.26 µM"
>>> result("C[C@@]1(CCCCCCCCCCc2ccccc2)C[C@@]2(C)OC(=O)C[C@H]2OO1")
"73.3 µM"

Here are 5 compounds. What values of TGI were reported for them?
1. C/C(=N\NC(=S)N1CCN(c2ccccn2)CC1)c1ccccn1
2. O=C(Cc1ccccc1[N+](=O)[O-])C(CO)c1ccccc1[N+](=O)[O-] (stereo not drawn)
3. O=[N+]([O-])c1ccc(/C=C/c2nc3ccc(Cl)cc3[nH]2)cc1
4. Cc1cc(Cl)nc2ccc(Cc3ccc4nc(Cl)cc(C)c4c3)cc12
5. OCC1OC2c3ccccc3COC2C1OCc1ccccc1 (stereo not drawn)

["16.2 µM", "> 100 µM", "> 100 µM", "47.1 µM", "> 100 µM"]

---

I'd appreciate it if you could supply TGI values for the items below.
Tested on: UO-31 renal
Assay: NCI tumour cell line growth inhibition, 48 h

Before answering, review these 3 worked examples.
>>> result("O=c1c2c3c(sc2nc2n1N=CN(c1ccccc1)C2)CCCC3")
"> 100 µM"
>>> result("O=C(O)CN(c1ccccc1)S(=O)(=O)c1cccc([N+](=O)[O-])c1")
"> 100 µM"
>>> result("CCOC(=O)c1nc2ccc(OC)cc2c2c1Cc1ccccc1-2")
"> 100 µM"

Take each entry in turn and give its TGI.
1. CN(C)C(=O)Oc1c(Br)cc(Br)cc1C(=O)OCc1ccccc1
2. CC1(C)NC(=O)N(CCCCCCN2C(=O)NC(C)(C)C2=O)C1=O
3. O=C(O)CCCCn1ccc(=O)[nH]c1=O

["68.9 µM", "> 100 µM", "> 100 µM"]
